- experimental_details: in vitro
- assay_conditions: human, liver microsomes
Catalogue of microsomal CLint at 0.5 h, 1 µM values
Dear colleague, please return just the value in µL/min/mg, with no unit written.

Returns the measured microsomal CLint at 0.5 h, 1 µM for the input compound. Input: `COc1ccc(CC(=O)NC(=N)N[C@H](CC2CCCCC2)C(=O)Nc2cc(S(=O)(=O)N(C)C)ccc2C)cc1OC`
204

`Cc1ccc(S(=O)(=O)N(C)C)cc1NC(=O)[C@@H](CC1CCCCC1)NC(=N)NC(=O)c1ccc2c(c1)OCCO2` ?
253

`COc1ccc(CC(=O)NC(=N)N[C@H](CSC)C(=O)Nc2cc(S(N)(=O)=O)ccc2C)cc1OC` ?
187

`CNS(=O)(=O)c1ccc(C)c(NC(=O)[C@@H](CC2CCCCC2)NC(=N)NC(=O)Cc2ccc(S(C)(=O)=O)cc2)c1` ?
241

`COc1ccc(CC(=O)NC(=N)N[C@H](CC(C)C)C(=O)Nc2cc(S(N)(=O)=O)ccc2C)cc1OC` ?
160

`Cc1ccc(S(=O)(=O)N(C)C)cc1NC(=O)[C@@H](CC1CCCCC1)NC(=N)NC(=O)Cc1ccc(C(F)(F)F)cc1` ?
291

`Cc1ccc(S(=O)(=O)N(C)C)cc1NC(=O)[C@@H](CC1CCCCC1)NC(=N)NC(=O)Cc1cc(C(F)(F)F)cc(C(F)(F)F)c1` ?
246

`Cc1ccc(S(=O)(=O)N(C)C)cc1NC(=O)[C@@H](CC1CCCCC1)NC(=N)NC(=O)Cc1ccc(F)c(F)c1` ?
163

Continuing:
Returns the measured microsomal CLint at 0.5 h, 1 µM for the input compound. Input: `COc1ccc(CC(=O)NC(=N)N[C@H](Cc2ccccc2F)C(=O)Nc2cc(S(N)(=O)=O)ccc2C)cc1OC`
171

`CNS(=O)(=O)c1ccc(C)c(NC(=O)[C@H](NC(=N)NC(=O)Cc2ccc(OC)c(OC)c2)c2ccccc2)c1` ?
281

`COc1ccc(CC(=O)NC(=N)N[C@H](CN2CCOCC2)C(=O)Nc2cc(S(N)(=O)=O)ccc2C)cc1OC` ?
31.8

Source: ChEMBL document CHEMBL4699662
